# targetOrTestSystem: F protein of hPIV Type 3 (hPIV3 C243) (human Parainfluenza Virus type 3 (hPIV3 …))
# protocolDescription: cell-based or functional assay
*1 amine or outer side, *2 acyl side, *3 side chain or, on linkers, in order; H or OH if unused. Side-chain parts run from the residue outwards. The star is where a group is joined. Succinyl(4-O-cholesteryl) = CC(C)CCC[C@@H](C)[C@H]1CC[C@H]2[C@@H]3CC=C4C[C@@H](OC(=O)CCC(=O)*)CC[C@]4(C)[C@H]3CC[C@]12C; Suc = O=C(CCC(=O)[*:2])[*:1]
Listed here: items and their measured EC50 (nM), plaque reduction, hPIV3 C243 on LLC-MK2 cells.
I only need the number, in nM, no unit after it.

[[record]]
binder = "Ac-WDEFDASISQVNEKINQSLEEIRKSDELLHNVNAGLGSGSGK([Suc-Succinyl(4-O-cholesteryl)])-NH2 [Compound 27]"
measurementunits = "nM"
measuredresult = 27.2

[[record]]
binder = "Ac-DEFDKKIEEVNKKIEESLKKIEESDKKLEAAAKK(Succinyl(4-O-cholesteryl))-NH2 [Compound 17]"
measurementunits = "nM"
measuredresult = 52.6


Now examine the next entry.
Entry under test: Ac-WDEFDKKIEEVNKKIEESLKKIEESDKKLEAAAKK([Suc-Succinyl(4-O-cholesteryl)])-NH2 [Compound 13] . Its EC50 (nM), plaque reduction, hPIV3 C243 on LLC-MK2 cells was 35.6
